TARGET: T1, human IL-18BP (Homo sapiens, UniProt O95998)
T1 construct: His
T1 sequence (O95998 31-194): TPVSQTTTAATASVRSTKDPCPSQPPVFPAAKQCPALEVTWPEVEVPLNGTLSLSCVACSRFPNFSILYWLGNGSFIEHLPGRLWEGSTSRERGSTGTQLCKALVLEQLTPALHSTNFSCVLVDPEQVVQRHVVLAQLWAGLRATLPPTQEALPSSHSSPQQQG
ASSAY OVERVIEW: IL-18BP binding alphaLISA assay (Example 4, used in Example 22B)
APPLIED CONDITIONS: IL-18BP AlphaLISA
RECORDED METRIC: Kd (nM)
Numbers only here, please. The scale is nM.

- MOLECULE: "C149: IL-18 polypeptide: V11I, E31A, C38A, K53A, C76A, C127A (protein) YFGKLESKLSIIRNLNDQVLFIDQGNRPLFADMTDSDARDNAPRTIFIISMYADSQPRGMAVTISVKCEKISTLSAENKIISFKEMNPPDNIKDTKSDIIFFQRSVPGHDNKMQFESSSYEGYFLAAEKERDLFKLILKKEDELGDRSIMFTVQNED"
  RECORDED METRIC: "Kd"
  REPORTED: 0.64
- MOLECULE: "C148: IL-18 polypeptide: F2A, V11I, C38A, K53A, C76A, C127A (protein) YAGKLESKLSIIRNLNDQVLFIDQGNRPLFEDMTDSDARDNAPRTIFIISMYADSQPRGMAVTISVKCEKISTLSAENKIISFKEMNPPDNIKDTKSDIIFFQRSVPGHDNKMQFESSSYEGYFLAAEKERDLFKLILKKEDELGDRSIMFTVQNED"
  RECORDED METRIC: "Kd"
  REPORTED: 57.2

Proceeding to the next molecule to report its Kd.
Could you tell me which Kd is on file for C154: IL-18 polypeptide: V11I, E31A, D37A, C38A, K53A, C76A, C127A (protein) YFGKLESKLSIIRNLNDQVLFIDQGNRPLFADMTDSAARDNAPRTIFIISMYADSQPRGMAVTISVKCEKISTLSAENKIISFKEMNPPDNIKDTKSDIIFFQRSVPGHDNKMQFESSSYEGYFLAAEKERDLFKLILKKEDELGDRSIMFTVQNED ?
2.12
